Reported IC50 against UniProt P45452, gathered from multiple publications, appears below.
# value in nM; strip the unit string

As a guide, the following entries are already answered.
{"columns": ["COMPOUND", "TARGET_SYSTEM", "RECORDED_ENDPOINT", "RECORDED_RESULT"],
 "data": [
  ["CNC(=O)[C@@H](NC(=O)c1ccc(-c2ccc(Cl)cc2)o1)C1CCCCC1", "UniProt P45452", "IC50", 475],
  ["COC(C)(C)NC(=O)CC1SC(c2ccc(Cl)cc2)N(C(Cc2ccc(OC(C)(C)C)cc2)C(=O)NO)C1=O (stereo not shown)", "UniProt P45452", "IC50", 23]
]}

Now for a further compound.
Measured IC50 (UniProt P45452), entry O=C(CC(CCn1nnc2ccccc2c1=O)C(=O)O)c1cc2cc(OCCC3CCCC3)ccc2o1 (racemic) : 5000

---

Below, pIC50 values reported for Collagenase 3 (Homo sapiens) across several publications.
The scale used: pIC50 is minus the common logarithm of the concentration in molar units.

# example entries with known answers
{"columns": ["COMPOUND", "pIC50"],
 "data": [
  ["Cc1ccc2nnn(C[C@H]3CC[C@@H](C(=O)c4ccc(OCc5cccc(C(F)(F)F)c5)cc4)[C@@H]3C(=O)O)c(=O)c2c1 (single isomer, unassigned)", 6.68],
  ["CNC(=O)[C@@H](NC(=O)c1ccc(-c2cccc(CNC(=O)C3CC3)c2)o1)C1CCCCC1", 6.40],
  ["COc1ccc(CC2Sc3ccccc3N([C@H](C)C(=O)NO)C2=O)cc1 (stereo partly shown)", 6.43],
  ["CC#CCOc1ccc(S(=O)(=O)C2(C(=O)NO)CCN(Cc3ccc(C#N)cc3)CC2)cc1", 7.14]
]}

// compound CNC(=O)[C@@H](NC(=O)[C@H](CC(C)C)NC(=O)[C@@H](S)CCN1C(=O)N(C)C(C)(C)C1=O)C(C)(C)C , assay Collagenase 3 (Homo sapiens), pIC50 value: 8.40

---

pIC50 values for Collagenase 3 (Homo sapiens) compiled from several publications are listed below.
pIC50: −log10 of the molar value.
True means recorded pIC50 is 7 or above; False means it is below 7.

{"columns": ["COMPOUND", "ASSIGNED_LABEL"],
 "data": [
  ["Cc1cccc(C(=O)Nc2ccc(-c3ccc(C(=O)N[C@H](C(=O)NC[C@H](C)O)C4CCCCC4)o3)cc2)n1", "True"],
  ["CO[C@@H](C)C(CS(=O)(=O)Cc1cnc2ccccc2c1)N(O)C=O (stereo in doubt)", "False"],
  ["Cc1noc(-c2cc3cc(-c4nc(C(=O)NCC5CCCO5)[nH]c4C)ccc3[nH]2)n1 (stereo not shown)", "True"],
  ["Cc1noc(-c2cc3cc(-c4cc(C(=O)NCc5ccoc5)nn4C)ccc3[nH]2)n1", "True"],
  ["CC(C)CNC(=O)C1Cc2sc3nc(C(=O)NCc4ccc5c(c4)NC(=O)CO5)[nH]c(=O)c3c2C1 (stereo not shown)", "True"]
]}

Exam item: decide whether the reported pIC50 for Cc1noc(-c2cc3cc(-c4nc(C(=O)NCCN5CCOCC5)[nH]c4C)ccc3[nH]2)n1 is at least 7.
True

Quick check: does CNC(=O)[C@@H](NC(=O)c1ccc(-c2ccc(O[C@@H](C)c3ccccc3)cn2)o1)C1CCCCC1 have pIC50 greater than or equal to 7?
False
